// data source = ChEMBL document CHEMBL5335771

experiment: Cytotoxicity against green monkey Vero 76 cells incubated for 48 to 96 hrs by crystal violet staining assay; type: toxicity, cell-based; conditions: green monkey (Chlorocebus sabaeus)
Items are presented alongside their recorded pIC50.
Scale: negative log10 of molar concentration, which is what pIC50 denotes.

molecule=Cc1ccc(NC[C@@H]2CCCN3CCCC[C@H]23)c2c(=O)c3ccccc3sc12 test_readout=pIC50 assay_value=4.91

Please give the measured pIC50 for this molecule: `Cc1ccc(NCC[C@@H]2CCCN3CCCC[C@H]23)c2c(=O)c3ccccc3sc12`
4.91

Please give the measured pIC50 for this molecule: CCN(CC)CCNc1ccc(C)c2sc3ccccc3c(=O)c12 [LUCANTHONE]
4.91

* * *

target: Cholinesterase (Equus caballus); experiment: Inhibition of equine serum BChE using butyrylthiocholine iodide as substrate preincubated for 20 mins followed by substrate addition by DTNB reagent based Ellman's method
Sequence (P81908 whole entry): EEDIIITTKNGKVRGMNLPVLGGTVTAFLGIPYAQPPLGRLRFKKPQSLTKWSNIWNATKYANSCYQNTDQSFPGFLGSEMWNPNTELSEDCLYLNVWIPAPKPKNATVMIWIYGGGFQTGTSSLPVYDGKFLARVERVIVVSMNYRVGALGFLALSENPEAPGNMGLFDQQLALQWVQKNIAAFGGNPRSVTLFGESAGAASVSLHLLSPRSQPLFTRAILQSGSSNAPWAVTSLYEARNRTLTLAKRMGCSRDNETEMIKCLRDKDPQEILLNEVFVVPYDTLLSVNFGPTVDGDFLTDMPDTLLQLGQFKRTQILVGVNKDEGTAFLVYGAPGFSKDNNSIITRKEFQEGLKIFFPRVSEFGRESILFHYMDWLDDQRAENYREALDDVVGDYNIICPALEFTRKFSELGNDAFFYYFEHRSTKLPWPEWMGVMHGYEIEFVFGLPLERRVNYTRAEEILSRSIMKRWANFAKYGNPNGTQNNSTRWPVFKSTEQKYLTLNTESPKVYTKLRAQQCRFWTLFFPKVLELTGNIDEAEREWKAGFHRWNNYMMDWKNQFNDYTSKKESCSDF
Items are presented alongside their recorded pIC50.
Scale: negative log10 of molar concentration, which is what pIC50 denotes.

Would you please look over these solved cases?
structure_smiles_string=COc1ccc2sc3c(C)ccc(NCC[C@@H]4CCCN5CCCC[C@H]45)c3c(=O)c2c1 assay_value=6.85
structure_smiles_string=COc1ccc2sc3c([N+](=O)[O-])ccc(NCC[C@@H]4CCCN5CCCC[C@H]45)c3c(=O)c2c1 assay_value=6.82

Query for Cholinesterase (Equus caballus): what pIC50 does the record show for `COc1ccc2sc3c(C)ccc(NCCC4CCN(C)CC4)c3c(=O)c2c1` ?
6.02

Query for Cholinesterase (Equus caballus): what pIC50 does the record show for `Cc1ccc(NCCC[C@@H]2CCCN3CCCC[C@H]23)c2c(=O)c3ccccc3oc12` ?
6.43

Query for Cholinesterase (Equus caballus): what pIC50 does the record show for `Cc1ccc(NCCCSC[C@@H]2CCCN3CCCC[C@H]23)c2c(=O)c3ccccc3sc12` ?
7.06

Query for Cholinesterase (Equus caballus): what pIC50 does the record show for `COc1ccc2sc3c([N+](=O)[O-])ccc(NCCC[C@@H]4CCCN5CCCC[C@H]45)c3c(=O)c2c1` ?
5.70

Query for Cholinesterase (Equus caballus): what pIC50 does the record show for `Cc1ccc(NCC[C@@H]2CCCN3CCCC[C@H]23)c2c(=O)c3cc(O)ccc3sc12` ?
6.80

Query for Cholinesterase (Equus caballus): what pIC50 does the record show for `COc1ccc2sc3c(N)ccc(NCC[C@@H]4CCCN5CCCC[C@H]45)c3c(=O)c2c1` ?
6.82

* * *

target: Microtubule-associated protein tau (Homo sapiens, UniProt P10636); test: Inhibition of tau (unknown origin) aggregation expressed in Escherichia coli BL21 (DE3) at 10 uM relative to control
Sequence (P10636 whole entry): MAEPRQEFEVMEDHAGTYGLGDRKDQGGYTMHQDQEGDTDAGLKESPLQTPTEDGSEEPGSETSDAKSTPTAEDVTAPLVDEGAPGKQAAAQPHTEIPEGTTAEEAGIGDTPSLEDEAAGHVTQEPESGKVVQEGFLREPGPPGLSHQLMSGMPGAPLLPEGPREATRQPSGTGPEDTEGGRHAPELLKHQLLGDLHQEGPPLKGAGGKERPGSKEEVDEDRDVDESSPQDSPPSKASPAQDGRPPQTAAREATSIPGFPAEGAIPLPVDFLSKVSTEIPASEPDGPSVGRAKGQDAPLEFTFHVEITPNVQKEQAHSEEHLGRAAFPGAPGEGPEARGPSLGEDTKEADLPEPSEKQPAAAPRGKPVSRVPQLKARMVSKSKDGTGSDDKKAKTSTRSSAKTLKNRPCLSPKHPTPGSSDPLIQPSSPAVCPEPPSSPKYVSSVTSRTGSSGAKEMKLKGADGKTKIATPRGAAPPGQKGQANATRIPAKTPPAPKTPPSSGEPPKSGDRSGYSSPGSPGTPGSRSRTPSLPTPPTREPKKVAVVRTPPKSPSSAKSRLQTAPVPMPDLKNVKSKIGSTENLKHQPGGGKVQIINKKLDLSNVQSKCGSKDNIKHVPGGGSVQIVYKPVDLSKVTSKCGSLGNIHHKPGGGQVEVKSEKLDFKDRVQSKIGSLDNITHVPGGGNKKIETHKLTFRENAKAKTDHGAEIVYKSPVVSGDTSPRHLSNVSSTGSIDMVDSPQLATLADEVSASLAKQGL
Items are presented alongside their recorded inhibition.
A number alone suffices; assume %.

Would you please look over these solved cases?
structure_smiles_string=COc1ccc2sc3c(N)ccc(NCC[C@@H]4CCCN5CCCC[C@H]45)c3c(=O)c2c1 assay_value=33
structure_smiles_string=CCN(CC)CCCNc1ccc(N)c2sc3ccc(OC)cc3c(=O)c12 assay_value=24
structure_smiles_string=Cc1ccc(NC[C@@H]2CCCN3CCCC[C@H]23)c2c(=O)c3ccccc3oc12 assay_value=35

Please give the measured inhibition for this compound: `Cc1ccc(NCCC[C@@H]2CCCN3CCCC[C@H]23)c2c(=O)c3ccccc3sc12`
26

Please give the measured inhibition for this compound: `COc1ccc2sc3c([N+](=O)[O-])ccc(NC[C@@H]4CCCN5CCCC[C@H]45)c3c(=O)c2c1`
32

Please give the measured inhibition for this compound: `O=c1c2ccccc2sc2c([N+](=O)[O-])ccc(NCCC[C@@H]3CCCN4CCCC[C@H]34)c12`
22

Please give the measured inhibition for this compound: `Nc1ccc(NCCC[C@@H]2CCCN3CCCC[C@H]23)c2c(=O)c3ccccc3sc12`
26

* * *

target: Microtubule-associated protein tau (Homo sapiens, UniProt P10636); assay: Inhibition of tau (unknown origin) aggregation expressed in Escherichia coli BL21 (DE3)
test-readout: IC50 (µM)
A number alone suffices; assume µM.

Would you please look over these solved cases?
structure_smiles_string=COc1ccc2sc3c(C)ccc(NCCC[C@@H]4CCCN5CCCC[C@H]45)c3c(=O)c2c1 experimental_target="Microtubule-associated protein tau (Homo sapiens, UniProt P10636)" test_readout=IC50 unit=µM assay_value=5.9
structure_smiles_string=Cc1ccc(NCC[C@@H]2CCCN3CCCC[C@H]23)c2c(=O)c3ccccc3sc12 experimental_target="Microtubule-associated protein tau (Homo sapiens, UniProt P10636)" test_readout=IC50 unit=µM assay_value=46

# ---- query compound ----
Please give the measured IC50 for this compound: `Cc1ccc(NCCC[C@@H]2CCCN3CCCC[C@H]23)c2c(=O)c3cc(O)ccc3sc12`
7.3

* * *

biological target: Acetylcholinesterase (Electrophorus electricus, UniProt O42275)
Sequence (O42275 whole entry): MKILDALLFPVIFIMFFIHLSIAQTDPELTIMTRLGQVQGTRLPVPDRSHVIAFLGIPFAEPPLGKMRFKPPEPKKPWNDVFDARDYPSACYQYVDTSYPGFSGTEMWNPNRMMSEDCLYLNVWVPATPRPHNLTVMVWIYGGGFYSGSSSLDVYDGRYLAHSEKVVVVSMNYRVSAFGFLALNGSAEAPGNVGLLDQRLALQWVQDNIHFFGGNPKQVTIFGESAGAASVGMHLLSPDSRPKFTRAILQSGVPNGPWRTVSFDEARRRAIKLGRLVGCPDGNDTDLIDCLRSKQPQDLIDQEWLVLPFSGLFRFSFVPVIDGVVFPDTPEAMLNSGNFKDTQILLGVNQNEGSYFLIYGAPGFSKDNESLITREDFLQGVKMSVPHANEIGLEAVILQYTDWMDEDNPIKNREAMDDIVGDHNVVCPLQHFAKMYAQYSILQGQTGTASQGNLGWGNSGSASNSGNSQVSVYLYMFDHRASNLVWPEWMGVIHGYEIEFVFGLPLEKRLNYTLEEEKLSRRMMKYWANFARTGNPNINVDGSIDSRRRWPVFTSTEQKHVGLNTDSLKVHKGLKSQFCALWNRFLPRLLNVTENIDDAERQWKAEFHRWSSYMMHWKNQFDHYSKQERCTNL
Items are presented alongside their recorded pIC50.
Scale: negative log10 of molar concentration, which is what pIC50 denotes.

Would you please look over these solved cases?
structure_smiles_string=COc1ccc2sc3c(C)ccc(NCC[C@@H]4CCCN5CCCC[C@H]45)c3c(=O)c2c1 experimental_target="Acetylcholinesterase (Electrophorus electricus, UniProt O42275)" assay_value=5.29
structure_smiles_string=COc1ccc2sc3c([N+](=O)[O-])ccc(NCC[C@@H]4CCCN5CCCC[C@H]45)c3c(=O)c2c1 experimental_target="Acetylcholinesterase (Electrophorus electricus, UniProt O42275)" assay_value=5.64
structure_smiles_string=COc1ccc2sc3c(C)ccc(NCCC4CCN(C)CC4)c3c(=O)c2c1 experimental_target="Acetylcholinesterase (Electrophorus electricus, UniProt O42275)" assay_value=5.36

# ---- query molecule ----
Please give the measured pIC50 for this molecule: `Cc1ccc(NCCCSC[C@@H]2CCCN3CCCC[C@H]23)c2c(=O)c3ccccc3sc12`
6.74

* * *

Items are presented alongside their recorded pIC50.
biological target: Amyloid-beta precursor protein (Homo sapiens, UniProt P05067); test: Inhibition of amyloid beta 40 peptide (unknown origin) aggregation incubated for 2 hr by ThT fluorescence based spectrofluorimetric analysis
Sequence (P05067 whole entry): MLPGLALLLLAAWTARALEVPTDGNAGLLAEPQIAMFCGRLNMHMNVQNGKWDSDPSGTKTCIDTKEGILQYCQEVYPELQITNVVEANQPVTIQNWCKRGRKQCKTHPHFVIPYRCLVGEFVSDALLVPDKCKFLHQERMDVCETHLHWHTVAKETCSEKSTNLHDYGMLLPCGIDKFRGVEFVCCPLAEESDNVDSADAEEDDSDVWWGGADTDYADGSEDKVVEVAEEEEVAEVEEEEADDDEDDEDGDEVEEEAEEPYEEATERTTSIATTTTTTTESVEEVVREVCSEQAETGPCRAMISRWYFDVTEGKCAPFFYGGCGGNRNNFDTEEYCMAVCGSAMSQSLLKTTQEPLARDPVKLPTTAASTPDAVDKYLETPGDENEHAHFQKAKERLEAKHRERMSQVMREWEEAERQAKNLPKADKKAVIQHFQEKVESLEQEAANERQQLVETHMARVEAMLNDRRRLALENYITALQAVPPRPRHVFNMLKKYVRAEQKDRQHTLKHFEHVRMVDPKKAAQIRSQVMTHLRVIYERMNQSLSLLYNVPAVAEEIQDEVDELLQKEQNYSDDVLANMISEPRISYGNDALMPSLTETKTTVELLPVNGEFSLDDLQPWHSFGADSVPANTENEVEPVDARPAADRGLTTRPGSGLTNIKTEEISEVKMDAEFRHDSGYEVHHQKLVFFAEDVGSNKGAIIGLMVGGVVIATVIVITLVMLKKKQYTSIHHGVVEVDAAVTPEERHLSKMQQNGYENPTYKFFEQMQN
Scale: negative log10 of molar concentration, which is what pIC50 denotes.

molecule=Cc1ccc(NC[C@@H]2CCCN3CCCC[C@H]23)c2c(=O)c3ccccc3sc12 experimental_target="Amyloid-beta precursor protein (Homo sapiens, UniProt P05067)" assay_value=4.55

Please give the measured pIC50 for this molecule: `Cc1ccc(NC[C@@H]2CCCN3CCCC[C@H]23)c2c(=O)c3ccccc3oc12`
4.32

Please give the measured pIC50 for this molecule: `Cc1ccc(NCCCSC[C@@H]2CCCN3CCCC[C@H]23)c2c(=O)c3ccccc3sc12`
5.37

Please give the measured pIC50 for this molecule: `Cc1ccc(NCCC[C@@H]2CCCN3CCCC[C@H]23)c2c(=O)c3cc(O)ccc3sc12`
5.54

* * *

biological target: Microtubule-associated protein tau (Homo sapiens, UniProt P10636); assay: Inhibition of tau (unknown origin) aggregation expressed in Escherichia coli BL21 (DE3)
test-readout: IC50 (µM)
A number alone suffices; assume µM.

structure_smiles_string=COc1ccc2sc3c([N+](=O)[O-])ccc(NCCC[C@@H]4CCCN5CCCC[C@H]45)c3c(=O)c2c1 assay_value=3
structure_smiles_string=CCN(CC)CCCNc1ccc(C)c2oc3ccccc3c(=O)c12 assay_value=16
structure_smiles_string=Cc1ccc(NCCC[C@@H]2CCCN3CCCC[C@H]23)c2c(=O)c3ccccc3oc12 assay_value=23
structure_smiles_string=Cc1ccc(NC[C@@H]2CCCN3CCCC[C@H]23)c2c(=O)c3cc(O)ccc3sc12 assay_value=9.1

Query for Microtubule-associated protein tau (Homo sapiens, UniProt P10636): what IC50 does the record show for `O=c1c2ccccc2sc2c([N+](=O)[O-])ccc(NC[C@@H]3CCCN4CCCC[C@H]34)c12` ?
15

* * *

target: Amyloid-beta precursor protein (Homo sapiens); assay: Inhibition of amyloid beta 40 peptide (unknown origin) aggregation incubated for 2 hr by ThT fluorescence based spectrofluorimetric analysis
test-readout: pIC50
Scale: negative log10 of molar concentration, which is what pIC50 denotes.

Would you please look over these solved cases?
compound=Cc1ccc(NC[C@@H]2CCCN3CCCC[C@H]23)c2c(=O)c3cc(O)ccc3sc12 assay_value=5.23
compound=CCCN(SC[C@H]1CCCN2CCCC[C@H]12)C1=C(Cl)C(=O)c2ccccc2C1=O assay_value=4.21
compound=COc1ccc2sc3c([N+](=O)[O-])ccc(NCCC[C@@H]4CCCN5CCCC[C@H]45)c3c(=O)c2c1 assay_value=5.10
compound="CCN(CC)CCNc1ccc(C)c2sc3ccccc3c(=O)c12 [LUCANTHONE]" assay_value=4.62
compound=Cc1ccc(NCC[C@@H]2CCCN3CCCC[C@H]23)c2c(=O)c3cc(O)ccc3sc12 assay_value=5.62
compound=COc1ccc2sc3c(C)ccc(NC[C@@H]4CCCN5CCCC[C@H]45)c3c(=O)c2c1 assay_value=5.37

Please give the measured pIC50 for this compound: `Cc1ccc(NCCC[C@@H]2CCCN3CCCC[C@H]23)c2c(=O)c3ccccc3sc12`
5.37
